Assay: folding stability dG unfold from trypsin proteolysis; higher = more stable
Please go through the items and note down their folding stability dG unfold.
Give bare numbers, in kcal/mol.

SMDPGDPILITIKIPPVPVYRYKRDPDGNPKGYEPVPMPSQELVIIIPANDLEKLLDLLQPFGLDVEIIPSA [r9_167_TrROS]
1.58
SAGGSFDPVEITTLEDGTIKILAKDPNTNKLFITTLKAKSIKTSSLGNGKTITTIPHEKVEESEELPSAGGS [r16_615_JUSTAS]
-0.795

Q: Which measured folding stability dG unfold value corresponds to KKKIKKIEIEIKIPVKSIEEAKEEVEKLAKELKEKFPEIKKIKVEIIKYDEKKGYITVKITIEVNGKKIEFS [r1_52_TrROS_Hall] ?
Ans: 1.56

====

Assay: folding stability dG unfold from trypsin proteolysis; higher = more stable
READOUT: folding stability dG unfold (kcal/mol)
One number for each entry, in kcal/mol.

Examples with their reported folding stability dG unfold follow.
SAGGSAGGSAGAPPGSTVTVTYTVTTTVTDRVPDGPGFTNPHTLTSTVTTTVNVGHPDLVSAGGSAGGSAGG [r11_734_TrMRF]
0.833
SAGGEVIELKIKFKTPEQREKLKEIAKKLNAEVVEEKDGEVIIRFKTPEQAERALKEAEKLGAEVELSAGGS [r16_88_TrROS_Hall]
4.29
SAGGSAGGSMKKIKIEVYNKDGSKTELPLSEILKLYDFDAEEIKKFLEKLFPKDVKFKIEIEGSAGGSAGGS [r12_399_TrMRF]
1.33
SAGGSAGGSAGGMMVNLKVTREKLPNGKYRVTFTLPNGEEVVVEVESEEEAEAAAKEIAASAGGSAGGSAGG [r11_955_JUSTAS]
3.2

Could I get folding stability dG unfold for every one of these entries?
1. SAMTIEEAIEKGKIGAIVKVEVELPNGGKIEIEIFIESESLEEALEKIKAFFEALNLKVKIIEVKVFPVSAG [r14_854_TrMRF]
2. SAGGGSMTPTTTTKTYNVPPELAQKILDGYPLGDKELAAALGLPPDVEVTLVSSDEDTLTVEITIPASAGGS [r16_679_JUSTAS]
3. SAGGSAGVPPGGRVRVLVYNPLTGEVREVELPVGSLEEFLRGANLPAPLPDGRPAPVVVEILEVEPSAGGSA [r15_797_TrMRF]
4. SAGGSAGGSKFKIVSIEVTVETNEDGSKTLTVKIRLEDGSEITITVPENATLEEVLKLLKELASAGGSAGGS [r12_1047_TrROS_Hall]
5. SAGGSAGGSAGPVISKSEVESTEIIFSYNNKHEITVKKVKKTITTTIPPVKLKPDGTPILSAGGSAGGSAGG [r11_558_JUSTAS]

Ans:
[3.4, 3.48, 1.77, 3.88, -0.803]

====

Assay: folding stability dG unfold (combined trypsin and chymotrypsin); higher = more stable
Entry flag: true (1) if folding stability dG unfold reaches 2 kcal/mol; false (0) if it does not.

As a guide, the following entries are already answered.
KTKTIVINAKDLTEEQLRELLKKLGVSEEDVEVSEDGKTVVIKIDGVTIVIVASPPKPVVKPDDPEAKKAAS [r1_57_TrROS_Hall]
false (0)
SSKIKEFIIKLPEKNKYYKIIVTPTEIYIYDENGKKIKKFSIPKNKKIKKIDIKIDKKKNKLIIKVYLEKSA [r9_939_TrMRF]
true (1)
SAGGSAGGSKMRERTITFPNAKITIWYHPDGNVRMEVMNPGNGKPKREIWMKPGDIEEILKKFSAGGSAGGS [r20_129_TrROS]
true (1)
SAGGSAGGSAGGSEEKPIPIKVKIWKPNPGELVEEKEYLIPSNGSAEEIKKAFPNAEISSAGGSAGGSAGGS [r4_187_TrMRF]
false (0)

Q: Determine whether this sequence has folding stability dG unfold no lower than 2 kcal/mol: SAGGSAGGSAGDWIKFEYTFKWNFFDPDGDLLMNMTVRVTIEIPIPPVPKPVKPSPNDDNSAGGSAGGSAGG [r17_325_TrROS]
Ans: true (1)
